test system: U2OS; assay: Here: values are normalized to the negative (DMSO; defined as 0% autophagy induction) and positive (250nM Torin1; mTOR inhibitor; defined as maximal inducer of autophagy = 100%) control compounds and represented as % of autophagy induction. […] The impact of autophagy induction on cells is complex and depends on the affected target. As such, the magnitude of a phenotype may not be equally mirrored in the %-value of autophagy induction and vice versa. The dynamics of the induction may indicate the mode of activation: e.g. activation via phosphorylation or a signaling cascade may occur fast, while activation via transcription factors may take considerably longer. […] Of note, treatment concentrations may be sub-optimal for specific compounds, leading to false negative annotations.; assay type: functional, Homo sapiens; details: Compound Concentration 10 uM, Timepoint 36 hours, Culturing Media DMEM, 1 % Penicillin/Streptomycin, 10% Fetal bovin serum Add-On: No, Screening Media Control DMEM, Screening Media Samples DMEM
Below is a list of entries, each paired with its recorded autophagy induction value.
Write down the value, and be sure its unit follows.

MOLECULE: COc1ccc(S(=O)(=O)c2cc(OC)ccc2S(=O)(=O)c2ccc([C@H](C)NS(C)(=O)=O)cc2)cc1
autophagy induction: 4.231%
//
MOLECULE: CS(=O)(=O)NC[C@H]1CC[C@H](Nc2nc3c(s2)CCSc2ccccc2-3)CC1
autophagy induction: 3.398%
//
MOLECULE: COc1ccccc1CN[C@H]1C2CCN(CC2)[C@H]1C(c1ccccc1)c1ccccc1 [CP-96345]
autophagy induction: 19.6555%

// below: autophagy induction requested for another molecule
Asked: Find the measured autophagy induction: item C[C@]1(C(=O)N(CCCC(=O)O)Cc2cccc(Cl)c2)CCN1C(=O)c1csc2ccccc12 [GLPG-0974] , target or system U2OS.
Given back: 0.8582%
